System: U251 CNS
protocol-details: NCI-60 one-dose screen, 48 h
condition-label: 10 µM unless noted
Protocol: Growth inhibition of the U251 human tumor cell line is measured as a screen for anti-cancer activity. Cells are grown in 96 well plates and exposed to the test compound for 48 hours. Compounds are tested at a single concentration, which is 10^-5 M for most compounds. The reported endpoint is percent growth (GI% or GIPRCNT), where numbers from 0 - 100% represent growth inhibition, and numbers from -100% - 0 represent cell death. For example, a value of 40 represents 60% growth inhibition. […]
This is part of a sample that, as a whole, favours compounds with a hit. Of some 83,000 tested, about 20% had one in any assay. The source made the active and inactive calls. Rule for the calls: active = growth percent below 10; inactive = the rest.
Respond using exactly one of the listed classes: active, inactive

Please share the test call associated with `O=C(Cc1ccccc1)c1ccccc1` .
inactive

I'd appreciate the recorded outcome for COc1ccc(C(C#N)C(C)=O)cc1 (configuration not stated) from this test.
inactive

Answer briefly: the call reported for COC1C(O)CC(OC2CC(Oc3cc4cc5c(c(O)c4c(O)c3C)C(=O)[C@@H](OC3CC(OC4CC(OC6CC(C)(O)C(OC(C)=O)C(C)O6)C(O)C(C)O4)C(O)C(C)O3)[C@H]([C@H](OC)C(=O)[C@@H](O)[C@@H](C)O)C5)OC(C)C2OC(C)=O)OC1C (some centres not stated) in this assay.
active

Hi, sorry to bother you, what did the test record for `CC(C)COC(=O)Cc1ccccc1` ?
inactive

Please share the test call associated with `O=Cc1cn(Cc2ccccc2)c2ccccc12` .
inactive

GET /call?item= `OCCN=Cc1c[nH]c2ccccc12` returns the recorded outcome of this test.
inactive

Tell me the assay call for `O=C(O)c1ccccc1N(CCO)CCCl` please.
inactive

Just curious, what result did `CC[C@H](C)[C@H](NC(=O)c1cnccn1)C(=O)N(C)[C@H](C[C@@H](OC(C)=O)c1nc(C(=O)N[C@@H](Cc2ccccc2)C[C@H](C)C(=O)OC)cs1)C(C)C` get here?
inactive

Hey, what did the test say about `C/C(=N/OC(=O)N(C)C)c1ccc(Cl)c(Cl)c1` ?
inactive

Which outcome was entered for the compound `N[C@@H](CCC(=O)CCl)C(=O)O` in this test?
inactive

Hey, what did the test say about `CC1=C2[C@H]3OC(=O)[C@@H](C)[C@@H]3CC[C@@]2(C)C=CC1=O` ?
inactive

Which outcome was assigned to `C[C@H](O)CCC(=O)c1ccoc1` in this test?
inactive

---

System: CCRF-CEM leukemia
protocol-details: NCI-60 one-dose screen, 48 h (100 = growth as untreated, 0 = no growth, -100 = all killed)
condition-label: 10 µM unless noted
Compounds without any hit were thinned out: in the full panel of roughly 83,000, 20% have a hit.
measured-attribute: growth (%)
Express your answer in %, writing the number without its unit.

Give the measured growth for `CCCC[C@H]1C(=O)O[C@H](C)[C@H](NC(=O)c2cccc(NC=O)c2O)C(=O)O[C@@H](C)[C@@H]1OC(=O)CC(C)C`
28.7

State its growth: `CCOC(=O)P(=O)(OCC)OCC`
118

Give growth for the following compound: `Oc1cc(Cl)ccc1Oc1ccc(Cl)cc1Cl`
24.8

For the compound `O=C(O)c1cc([N+](=O)[O-])cc([N+](=O)[O-])c1` , give its measured growth value.
80.6

Please indicate growth recorded for `OCCN=Cc1c[nH]c2ccccc12`
114

Give a short answer stating reported growth for C=CCOC(=O)C(Br)CC (centres undefined) .
107

Please list growth recorded for the compound `O=[N+]([O-])c1ccc2scc3c4ccccc4nc-3c2c1`
-12.3

Indicate the recorded growth value for this compound: `CC[C@H](C)[C@H](NC(=O)[C@H]1CCCCN1C)C(=O)N(C)[C@H](C[C@@H](OC(C)=O)c1cccc(C(=O)N[C@@H](Cc2ccccc2)C[C@H](C)C(=O)OC)n1)C(C)C`
14.4

Given the compound `COC[C@H]1OC(=O)c2coc3c2[C@@]1(C)C1=C(C3=O)[C@@H]2CCC(=O)[C@@]2(C)C[C@H]1OC(C)=O` , write its reported growth.
46.6

Answer with the recorded growth for the compound listed here: C=CC1CN2CCC1CC2C(O)c1ccnc2ccccc12 (centres undefined)
304

Hello, please tell me recorded growth for this one: `CCCCOC(N)=O`
102

Recall and state the measured growth for `Cc1ccc(C(=O)O[C@H](C(=O)O)[C@H](OC(=O)c2ccc(C)cc2)C(=O)O)cc1` .
105

Give the measured growth for `CC[C@H](C)[C@H](NC(=O)C12CC(NC)(C1)C2)C(=O)N(C)[C@H](C[C@@H](OC(C)=O)c1nc(C(=O)N[C@@H](Cc2ccccc2)C[C@H](C)C(=O)OC)cs1)C(C)C`
1.27

Give the measured growth for `O=C(O)c1ccccc1N(CCO)CCCl`
-3.53

Specify measured growth for `N#Cc1ccc(Cl)cc1` .
99.5

State its growth: `C=CC[PH+](c1ccccc1)c1ccccc1.C=CC[PH+](c1ccccc1)c1ccccc1.[Pt+2].[S-]c1ncccn1.[S-]c1ncccn1`
6.99

Please supply the value of reported growth for the item `COc1ccc2c(c1)c(-c1nc(-c3c[nH]c4ncccc34)cs1)cn2CCCCN1CCOCC1`
-8.39

Tell us which growth value is on record for `C/C(=C\c1ccn(-c2ccc(N)cc2F)n1)[C@@H]1C[C@@H]2O[C@]2(C)CCC[C@H](C)[C@H](O)[C@@H](C)C(=O)C(C)(C)[C@@H](O)CC(=O)O1`
12.9

Using known records, supply growth for `CC1=C2[C@H]3OC(=O)[C@@H](C)[C@@H]3CC[C@@]2(C)C=CC1=O`
94.6

Provide only the value of recorded growth for O=S(OO)c1cc(Cl)c(O)c(Cl)c1 (centres undefined)
91

Look up and report measured growth for this entry: `Cc1ccc(P(=O)(O)O)cc1`
114

Look up and state reported growth for C[C@]12CCC3[C@@H](C[C@@H]4SC(Nc5ccccc5)=N[C@@]45CC(=O)CC[C@]35C)[C@@H]1CCC2=O (some centres undefined)
3.23

Respond only with growth recorded for O=C(Cc1ccccc1)NC(O)C(Cl)(Cl)Cl (centres undefined)
106

Give recorded growth. C[N+]1(C)CCCC1c1cccnc1 (centres undefined)
97.6

Specify reported growth for the compound shown: CC1OC(=O)C(C(C)C)NC(=O)C(C(C)C)OC(=O)C(C(C)C)NC(=O)C(C)OC(=O)C(C(C)C)NC(=O)C(C(C)C)OC(=O)C(C(C)C)NC(=O)C(C)OC(=O)C(C(C)C)NC(=O)C(C(C)C)OC(=O)C(C(C)C)NC1=O (centres undefined)
-20.1

Tell us which growth value is on record for `C#Cc1cccc(Nc2nc(Cl)nc3cc(NC(=O)CF)ccc23)c1`
93.4

Could you please provide reported growth for `COc1cc2c(cc1OC)[C@@H]1C(=O)c3ccc4c(c3O[C@@H]1CO2)C[C@H](C(C)C)O4` ? Thanks!
42.6

For the compound CCN1C(=O)NC(=O)C(C)(N2C(=O)c3c(F)c(F)c(F)c(F)c3C2=O)C1=O (centres undefined) , give its measured growth value.
19.5

Give growth for `O=[N+]([O-])c1ccc(P(=O)(O)O)cc1`
97.1

Give the reported growth for this compound. `CNC(=O)CCl`
94

Identify growth associated with the compound `CC(=O)Cc1ccc2c(c1)OCO2`
108

Could you please provide reported growth for `C[C@@H]1C/C=C\C(=O)O[C@H](/C=C/C#C/C=C/C(C)(C)[C@@H](O)c2cccc(O)c2Br)[C@@H](C)/C=C/[C@H](C)C[C@H](OC(N)=O)C1` ? Thanks!
25.7

Return value of growth for input `CC1(C)CN=C(NN=C(/C=C/c2ccc(C(F)(F)F)cc2)/C=C/c2ccc(C(F)(F)F)cc2)NC1` , no commentary.
-24.9

Please supply the value of reported growth for the item `CCC1(CCSC#N)C(=O)NC(=O)NC1=O`
103

Look up growth of `Cc1ccc(NC2=N[C@]34CC(=O)CC[C@]3(C)[C@H]3CC[C@]5(C)C(=O)CC[C@H]5[C@@H]3C[C@@H]4S2)c(C)c1` and report it.
7.99

Note down growth recorded for `Cc1ccc(N2CCN(CCC#N)CC2)cc1`
92

Supply reported growth belonging to this compound: `C/C(=C\c1ccn(-c2ccc(N)c(C(F)(F)F)c2)n1)[C@@H]1C[C@@H]2O[C@]2(C)CCC[C@H](C)[C@H](O)[C@@H](C)C(=O)C(C)(C)[C@@H](O)CC(=O)O1`
14.3

Dear colleague, please send me the reported growth for CCCN1C(=O)NC(=O)C(CC)(N2C(=O)c3c(F)c(F)c(F)c(F)c3C2=O)C1=O (centres undefined) when you can.
-56.7

Report growth for `CC(C)CCC1C(=O)NC(=O)NC1=O`
106
